Source: patent US9975878B2

Test system: Bmi-1 protein
Assay: Sandwich ELISA Assay: Bmi-1 protein level in HT-1080 cells treated with test compounds
Assay type: cell-based
pEC50: −log10 of the molar value.
experimental_readout: pEC50

molecule: CCc1nc2ccccc2n1-c1nc(N)nc(Nc2ccc(C(F)(F)F)cc2)n1 [Cpd 30]
measurement: 7.00 to 8.00
//
molecule: Cc1ccc(Nc2nc(N)nc(-n3c(C)nc4c(F)cccc43)n2)cc1 [Cpd 180]
measurement: 8.00 to 9.00

Enquiry: Fill in pEC50 for record CCc1nc2c(F)cc(F)cc2n1-c1nc(N)nc(Nc2ccc(C(F)(F)F)cc2)n1 [Cpd 45]
Return: 7.00 to 8.00

Enquiry: Fill in pEC50 for record Cc1nc2cc(F)c(F)cc2n1-c1nc(N)nc(Nc2ccc(C(F)(F)F)cc2)n1 [Cpd 9]
Return: 5.52 to 7.00

Enquiry: Fill in pEC50 for record CCc1nc2ncc(F)cc2n1-c1nc(N)nc(Nc2ccc(OC(F)F)cc2)n1 [Cpd 79]
Return: 7.00 to 8.00

Enquiry: Fill in pEC50 for record Cc1nc2ccccc2n1-c1nc(NCCO)nc(Nc2ccc3c(c2)OCO3)n1 [Cpd 19]
Return: 5.52 to 7.00
